Target: CaHof1
Experiment: SPOT peptide array binding signal intensity (averaged, normalized) (arbitrary units (background-subtracted, floor 0; scale differs between SH3 domains)); higher = stronger binding of the SH3 domain to the peptide
SPOT peptide array binding signal intensity: recorded values
// response body must contain only the number

>  <Binder>
ATKSASPTLPTRRSR

>  <Readout Value>
4

$$$$
>  <Binder>
RKRRTHLRLPLIRSN

>  <Readout Value>
0.25

$$$$

Task: Dear colleague, I am looking for the recorded SPOT peptide array binding signal intensity of the following binder: `NAGIRPKFILALNDE`
Result: 1

Task: Try the binder `TPRLSLPRLPNKHHW`
Result: 1
